Entry source: ChEMBL document CHEMBL3885881

Species: Rattus norvegicus
Assay: DrugMatrix - Regimen: Daily Repeat
Type: toxicity, organism-based, Sprague-Dawley
Design: regimen Daily Repeat, gender Male, age 6-8 weeks
Conditions: in vivo, po, 0 mg/kg, 120 h, tissue Plasma, route oral GAVAGE, dose level Control, time 5 day, vehicle .5 % CMC
LIPASE values by entry
PROPERTY: LIPASE

compound=COc1nc(C)nc(Cl)c1N=C1NCCN1 result="10 u/L"
compound="CCCN1C[C@H](CSC)C[C@@H]2c3cccc4[nH]cc(c34)C[C@H]21 [PERGOLIDE]" result="9.5 u/L"
compound=CCn1cc(C(=O)O)c(=O)c2cc(F)c(N3CCNCC3)cc21 result="10.33 u/L"
compound=Nc1ccn([C@H]2CC[C@@H](CO)O2)c(=O)n1 result="8.83 u/L"
compound=ClC(Br)Br result="9.5 u/L"
compound=Cc1ccc(/N=C/N(C)/C=N/c2ccc(C)cc2C)c(C)c1 result="10.33 u/L"
